Target: S1P1 (Homo sapiens)
Construct: host or cells: U2OS
Sequence (P21453 whole entry, one chain of several): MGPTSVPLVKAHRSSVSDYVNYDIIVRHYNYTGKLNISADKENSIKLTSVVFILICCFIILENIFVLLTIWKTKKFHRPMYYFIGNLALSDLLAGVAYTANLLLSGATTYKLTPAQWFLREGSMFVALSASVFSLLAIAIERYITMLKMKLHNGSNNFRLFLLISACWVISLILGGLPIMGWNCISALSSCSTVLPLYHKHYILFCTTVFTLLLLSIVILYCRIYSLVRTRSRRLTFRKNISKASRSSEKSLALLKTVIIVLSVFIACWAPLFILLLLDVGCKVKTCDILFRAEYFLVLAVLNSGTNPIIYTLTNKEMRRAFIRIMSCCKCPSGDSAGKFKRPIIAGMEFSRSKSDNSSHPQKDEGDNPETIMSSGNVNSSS
Experiment: Tango β-arrestin recruitment assay in U2OS cells (Assay 2b)
Assay type: cell-based
Conditions: read-out: Assay 2b EC50
pEC50: −log10 of the molar value.
Measured endpoint: pEC50

Below, each entry is followed by its recorded pEC50 result.
CCCOc1ccc(-c2nnc(-c3cc(F)c(OC[C@H](N)CO)cc3Cl)s2)cc1 [Entry 91] ... 5.55 to 6.60
CC(C)Oc1ccc(-c2nnc(-c3cc(F)c(OC[C@H](N)[C@H](C)OP(=O)(O)O)cc3Cl)s2)cc1C#N [Entry 53] ... ≥ 8.00
N[C@H](CO)COc1cc(Cl)c(-c2nnc(-c3cc(Br)cc(OC(F)(F)F)c3)s2)cc1F [Entry 28] ... 6.60 to 7.30
CC(C)Oc1ccc(-c2nnc(-c3cc(F)c(OC[C@H](N)COP(=O)(O)O)cc3Cl)s2)cc1Br [Entry 29] ... ≥ 8.00
CC(C)Nc1ccc(-c2nnc(-c3cc(F)c(OC[C@H](N)[C@H](C)OP(=O)(O)O)cc3Cl)s2)cn1 [Entry 54] ... ≥ 8.00

Would you mind telling me what pEC50 value was observed for CC(C)Oc1ccc(-c2nnc(-c3cc(F)c(OC[C@H](N)COP(=O)(O)O)cc3Cl)s2)cc1C#N [Entry 79] ?
≥ 8.00

CC(C)Nc1ncc(-c2nnc(-c3cc(F)c(OC[C@H](N)CO)cc3Cl)s2)cc1Cl [Entry 81] ?
7.30 to 8.00

NC(CO)COc1cc(Cl)c(-c2nnc(-c3cn4ccsc4n3)s2)cc1F (centres unmarked) [Entry 4] ?
6.60 to 7.30

----------
Molecular target: S1P1 (Homo sapiens)
Construct: host or cells: U2OS
Assay: Tango β-arrestin recruitment assay in U2OS cells (Assay 2b)
Assay type: cell-based
Details: read-out: Assay 2b EC50
From the text: For the Tango™ β-arrestin recruitment assay, the cytoplasmic C-terminus of S1P1 was tethered to the tTA transcriptional activator with a linker that contains a cleavage site for the N1a protease from tobacco etch virus (TEV protease). The C-terminus of the human β-arrestin2 protein was fused to TEV protease. […]
Measured endpoint: EC50

Below, each entry is followed by its recorded EC50 result.
CC(C)N(C)c1cc(-c2nnc(-c3cc(F)c(OCC(N)CO)cc3Cl)s2)cc(Cl)n1 (stereo not shown) ... ≤ 10 nM
CC(C)Oc1ccc(-c2nnc(-c3cc(F)c(OC[C@H](N)CO)cc3Cl)s2)cc1F ... 50 to 250 nM
CC(C)Oc1ccc(-c2nnc(-c3cc(F)c(OC[C@H](N)CO)cc3Cl)s2)cc1Br ... 10 to 50 nM
Cc1cc(-c2nnc(-c3cc(F)c(OC[C@H](N)[C@@H](C)O)cc3Cl)s2)ccc1OC(C)C ... 10 to 50 nM
N#Cc1cc(-c2nnc(-c3cc(F)c(OC[C@H](N)CO)cc3Cl)s2)ccc1OC1COC1 ... ≤ 10 nM

Would you mind telling me what EC50 value was observed for Cc1cc(-c2nnc(-c3cc(F)c(OC[C@@H](N)[C@H](C)O)cc3Cl)s2)cc(NC(C)C)n1 ?
≤ 10 nM

CC(C)Oc1ccc(-c2nnc(-c3cc(F)c(OC[C@@H](N)[C@@H](C)OP(=O)(O)O)cc3Cl)s2)cc1Cl ?
≤ 10 nM

CC(C)Oc1ccc(-c2nnc(-c3ccc(OC[C@H](N)CO)cc3Cl)s2)cc1Cl ?
50 to 250 nM

CC(C)Oc1ccc(-c2nnc(-c3cc(F)c(OC[C@@H](N)CO)cc3Cl)s2)nc1Cl ?
≤ 10 nM

Cc1cc(-c2nnc(-c3cc(F)c(OC[C@H](N)[C@H](C)OP(=O)(O)O)cc3Cl)s2)cc(NC(C)C)n1 ?
≤ 10 nM

Cc1nc(-c2nnc(-c3cc(F)c(OC[C@H](N)[C@@H](C)O)cc3Cl)s2)ccc1NC(C)C ?
10 to 50 nM

CC(C)Nc1ccc(-c2nnc(-c3cc(F)c(OC[C@@H](N)[C@@H](C)O)cc3Cl)s2)cn1 ?
≤ 10 nM

CC(C)Oc1ccc(-c2nnc(-c3cc(F)c(OC[C@@H](N)[C@H](C)OP(=O)(O)O)cc3Cl)s2)cc1Cl ?
≤ 10 nM

CC(C)Nc1ccc(-c2nnc(-c3cc(F)c(OC[C@@H](N)[C@H](C)O)cc3Cl)s2)cn1 ?
≤ 10 nM

----------
Entries and their EC50 values follow.
Target: hS1PR5 (hEdg8) membrane protein (Homo sapiens, UniProt Q9H228)
Sequence (Q9H228 whole entry): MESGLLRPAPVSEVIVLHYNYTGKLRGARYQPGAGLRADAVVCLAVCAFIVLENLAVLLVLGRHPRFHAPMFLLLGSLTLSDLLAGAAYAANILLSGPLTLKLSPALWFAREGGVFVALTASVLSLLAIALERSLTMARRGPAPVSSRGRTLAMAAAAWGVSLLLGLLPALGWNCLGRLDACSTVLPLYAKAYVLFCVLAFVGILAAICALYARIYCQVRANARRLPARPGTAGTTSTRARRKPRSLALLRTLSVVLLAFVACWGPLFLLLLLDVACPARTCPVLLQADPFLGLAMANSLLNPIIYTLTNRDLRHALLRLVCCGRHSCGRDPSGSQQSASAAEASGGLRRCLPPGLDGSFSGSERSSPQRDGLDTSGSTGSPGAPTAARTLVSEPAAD
Test: hS1P5R GTPγS binding assay (Assay 4)

Would you mind telling me what EC50 value was observed for CC(C)Nc1ncc(-c2nnc(-c3cc(F)c(OC[C@H](N)[C@@H](C)O)cc3Cl)s2)cc1Cl ?
250 to 2800 nM

CC(C)Nc1ccc(-c2nnc(-c3cc(F)c(OC[C@H](N)[C@H](C)OP(=O)(O)O)cc3Cl)s2)cn1 ?
10 to 50 nM

CC(C)Nc1ncc(-c2nnc(-c3cc(F)c(OC[C@@H](N)CO)cc3Cl)s2)cn1 ?
250 to 2800 nM

CC(C)Oc1ccc(-c2nnc(-c3cc(F)c(OC[C@H](N)[C@H](C)O)cc3Cl)s2)cc1C#N ?
10 to 50 nM

CC(C)Oc1ccc(-c2nnc(-c3cc(F)c(OC[C@H](N)[C@H](C)OP(=O)(O)O)cc3Cl)s2)cc1Cl ?
10 to 50 nM

----------
Molecular target: S1P1 (Homo sapiens)
Construct: host or cells: U2OS
Experiment: Tango β-arrestin recruitment assay in U2OS cells (Assay 2b)
Format: cell-based
Details: read-out: Assay 2b EC50
Measured endpoint: EC50

Below, each entry is followed by its recorded EC50 result.
CC(C)Oc1ccc(-c2nnc(-c3cc(F)c(OC[C@@H](N)[C@@H](C)O)cc3Cl)s2)cc1C#N ... ≤ 0.01 µM
CC(C)Oc1ccc(-c2nnc(-c3cc(F)c(OC[C@@H](N)CO)cc3Cl)s2)cn1 ... ≤ 0.01 µM
Cc1nc(-c2nnc(-c3cc(F)c(OC[C@H](N)[C@H](C)O)cc3Cl)s2)ccc1NC(C)C ... 0.05 to 0.25 µM

Here is the next item to consider.
Would you mind telling me what EC50 value was observed for CC(C)Oc1ccc(-c2nnc(-c3cc(F)c(OC[C@H](N)CO)cc3Cl)s2)cn1 ?
0.05 to 0.25 µM

----------
Entries and their pEC50 values follow.
Molecular target: hS1P1R (hEdg1) membrane protein (Homo sapiens, UniProt P21453)
Sequence (P21453 whole entry): as the sequence (P21453 whole entry, one chain of several) above
Experiment: hS1P1R GTPγS binding assay (Assay 3a)
Method: Assay 3a: The hS1P1R GTPγS binding assay was carried out at room temperature in 96 well non-binding surface assay plates. The reaction in each well contained 4 μg hS1P1R (hEdg1) membrane protein (Lonza), 30 μM GDP, 0.1 nM [^35S]GTPγS, 0.25% fatty acid free BSA, and serially diluted hS1P1R agonist compound in 200 μL assay buffer (25 mM Tris-HCl PH 7.9, 100 mM NaCl, 3 mM MgCl2, and 0.2 mM EGTA). […] The radioactivity of the bound GTPγS was counted by reading the assay plate using a MicroBeta.
pEC50: −log10 of the molar value.

Below, each entry is followed by its recorded pEC50 result.
CC(C)Oc1ccc(-c2nnc(-c3cc(F)c(OC[C@@H](N)COP(=O)(O)O)cc3Cl)s2)cc1Cl ... ≥ 8.00
CC(C)Oc1ccc(-c2nnc(-c3cc(F)c(OC[C@H](N)COP(=O)(O)O)cc3Cl)s2)cc1Br ... ≥ 8.00
CC(C)Oc1cc(Br)cc(-c2nnc(-c3cc(F)c(OC[C@H](N)CO)cc3Cl)s2)c1 ... 6.60 to 7.30
CC(C)Oc1ccc(-c2nnc(-c3cc(F)c(OC[C@H](N)[C@H](C)OP(=O)(O)O)cc3Cl)s2)cc1C#N ... ≥ 8.00

Would you mind telling me what pEC50 value was observed for N[C@H](CO)COc1cc(Cl)c(-c2nnc(-c3cc(Br)cc(OC(F)(F)F)c3)s2)cc1F ?
6.60 to 7.30

CC(C)Oc1ccc(-c2nnc(-c3cc(F)c(OC[C@H](N)CO)cc3Cl)s2)cc1F ?
7.30 to 8.00

CCCOc1ccc(-c2nnc(-c3cc(F)c(OC[C@H](N)CO)cc3Cl)s2)cc1Cl ?
7.30 to 8.00

Cc1nc(-c2nnc(-c3cc(F)c(OC[C@H](N)[C@@H](C)O)cc3Cl)s2)ccc1NC(C)C ?
7.30 to 8.00

----------
Target: S1P3 (Homo sapiens, UniProt Q99500)
Construct: host or cells: HEK293 (transient transfection)
Sequence (P32121 whole entry): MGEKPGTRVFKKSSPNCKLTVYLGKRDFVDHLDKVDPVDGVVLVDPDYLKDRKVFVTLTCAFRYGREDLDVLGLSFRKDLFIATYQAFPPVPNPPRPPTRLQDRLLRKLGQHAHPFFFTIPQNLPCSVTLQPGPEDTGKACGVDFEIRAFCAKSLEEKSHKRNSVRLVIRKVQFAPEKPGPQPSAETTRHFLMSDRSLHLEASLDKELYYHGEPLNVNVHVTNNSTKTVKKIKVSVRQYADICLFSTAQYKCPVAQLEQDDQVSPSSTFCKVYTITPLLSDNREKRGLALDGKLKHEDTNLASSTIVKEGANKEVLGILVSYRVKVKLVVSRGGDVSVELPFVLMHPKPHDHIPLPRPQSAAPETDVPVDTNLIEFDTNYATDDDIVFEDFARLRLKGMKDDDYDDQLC
Sequence (Q99500 whole entry): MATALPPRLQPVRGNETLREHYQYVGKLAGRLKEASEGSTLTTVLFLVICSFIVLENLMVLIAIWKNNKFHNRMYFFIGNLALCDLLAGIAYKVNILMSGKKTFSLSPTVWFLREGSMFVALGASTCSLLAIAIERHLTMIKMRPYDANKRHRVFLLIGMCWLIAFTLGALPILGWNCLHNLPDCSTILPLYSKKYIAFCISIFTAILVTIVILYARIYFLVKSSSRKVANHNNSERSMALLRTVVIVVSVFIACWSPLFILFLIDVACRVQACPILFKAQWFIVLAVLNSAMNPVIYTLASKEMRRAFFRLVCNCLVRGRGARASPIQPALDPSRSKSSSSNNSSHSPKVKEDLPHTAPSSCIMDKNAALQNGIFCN
Assay: S1P3 Tango β-arrestin recruitment assay in HEK293 cells (Assay 5)
Type: cell-based
Conditions: * = rEC50 measured rather than EC50, read-out: Assay 5 rEC50 (relative EC50, cells marked *)
pEC50: −log10 of the molar value.
Measured endpoint: pEC50

CC(C)Nc1ccc(-c2nnc(-c3cc(F)c(OC[C@@H](N)CO)cc3Cl)s2)cc1Cl [Entry 45] ... < 6.60
CC(C)Oc1ccc(-c2nnc(-c3cc(F)c(OC[C@@H](N)[C@@H](C)O)cc3Cl)s2)cc1C#N [Entry 86] ... < 6.60
CC(C)Oc1ccc(-c2nnc(-c3cc(F)c(OC[C@@H](N)[C@H](C)OP(=O)(O)O)cc3Cl)s2)cc1Cl [Entry 64] ... ≥ 6.60

Would you mind telling me what pEC50 value was observed for CC(C)Oc1ccc(-c2nnc(-c3cc(F)c(OC[C@@H](N)COP(=O)(O)O)cc3Cl)s2)cc1Cl [Entry 16] ?
≥ 6.60
